experiment: The drug is tested on WLS-027 corresponding to human gut metagenome with ENA study accession number: PRJEB37062 and ENA sample accession number: ERS12561744 for biotransformation under anaerobic condition. The drug concentrations were measured over 9 timepoints collected between 0 and 24 hours of incubation by liquid-chromatography-coupled mass spectrometry (LC–MS); settings: 2 µM; also: call rule not given here
readout_kind: Bacterial Biotransformation

- CN1CCC(=C2c3ccccc3CCc3cccnc32)CC1.O=C(O)/C=C\C(=O)O.O=C(O)/C=C\C(=O)O [AZATADINE MALEATE]: Compound NOT metabolized
- CN1CC(=O)N2[C@H](c3ccc4c(c3)OCO4)c3[nH]c4ccccc4c3C[C@@H]2C1=O: Compound metabolized
- CCN1CCCC1CNC(=O)c1cc(S(N)(=O)=O)ccc1OC (configuration not stated) [SULPIRIDE]: Compound metabolized
- CN(C)CC(c1ccc(O)cc1)C1(O)CCCCC1.O=C(O)CCC(=O)O (configuration not stated) [DESVENLAFAXINE SUCCINATE]: Compound NOT metabolized
- CCCc1nn(C)c2c(=O)[nH]c(-c3cc(S(=O)(=O)N4CCN(C)CC4)ccc3OCC)nc12.O=C(O)CC(O)(CC(=O)O)C(=O)O [SILDENAFIL CITRATE]: Compound NOT metabolized
- CC(C)c1c(C(=O)Nc2ccccc2)c(-c2ccccc2)c(-c2ccc(F)cc2)n1CC[C@@H](O)C[C@@H](O)CC(=O)O: Compound metabolized
- COc1ccc2c(c1OC)C(=O)O[C@@H]2[C@H]1c2c(cc3c(c2OC)OCO3)CCN1C: Compound NOT metabolized

* * *

details: human gut metagenome, 24 h, 2 µM
Where a SMILES comes first, the peptide text is derived from it. [ ]: non-standard residue; d: D form. pGlu = O=C1CC[C@@H](C(=O)O)N1; Thz = O=C(O)[C@@H]1CSCN1
readout_kind: Bacterial Biotransformation

• CN1CCN(CC/C=C2/c3ccccc3Sc3ccc(S(=O)(=O)N(C)C)cc32)CC1 = Compound metabolized
• NC(CO)(CO)CO.O=C(c1ccccc1)c1ccc2n1CCC2C(=O)O (stereo not given) = Compound metabolized
• CO[C@]12C[C@@H](COC(=O)c3cncc(Br)c3)CN(C)[C@@H]1Cc1cn(C)c3cccc2c13 = Compound NOT metabolized
• COc1c(C)c2c(c(O)c1C/C=C(\C)CCC(=O)OCCN1CCOCC1)C(=O)OC2 [MYCOPHENOLATE MOFETIL] = Compound metabolized
• CNC(=C[N+](=O)[O-])NCCSCc1csc(CN(C)C)n1 = Compound NOT metabolized
• CCc1nc(N)nc(N)c1-c1ccc(Cl)cc1 = Compound NOT metabolized
• CCCCc1nc(Cl)c(CO)n1Cc1ccc(-c2ccccc2-c2nn[nH]n2)cc1 = Compound metabolized
• CN1CC(=O)N2[C@H](c3ccc4c(c3)OCO4)c3[nH]c4ccccc4c3C[C@@H]2C1=O = Compound metabolized
• CNC(=C[N+](=O)[O-])NCCSCc1ccc(CN(C)C)o1 = Compound NOT metabolized
• CN1C[C@H](C(=O)N[C@]2(C)O[C@@]3(O)[C@@H]4CCCN4C(=O)[C@H](Cc4ccccc4)N3C2=O)C=C2c3cccc4[nH]cc(c34)C[C@H]21.CN1C[C@H](C(=O)N[C@]2(C)O[C@@]3(O)[C@@H]4CCCN4C(=O)[C@H](Cc4ccccc4)N3C2=O)C=C2c3cccc4[nH]cc(c34)C[C@H]21.O=C(O)C(O)C(O)C(=O)O [ERGOTAMINE TARTRATE] = Compound metabolized
• O=P(O)(O)O.c1ccc(CN(CC2=NCCN2)c2ccccc2)cc1 [ANTAZOLINE PHOSPHATE] = Compound NOT metabolized
• O=C1CC[C@@H](C(=O)N2CSC[C@H]2C(=O)O)N1 [PIDOTIMOD] ([pGlu]-[Thz]-OH) = Compound NOT metabolized
• Nc1ccc(/N=N/c2ccccc2)c(N)n1 = Compound metabolized
• OCCOCCN1CCN(C2=Nc3ccccc3Sc3ccccc32)CC1 = Compound metabolized
• CC(C)c1nc(CN(C)C(=O)N[C@H](C(=O)N[C@@H](Cc2ccccc2)C[C@H](O)[C@H](Cc2ccccc2)NC(=O)OCc2cncs2)C(C)C)cs1 = Compound metabolized
